system: Pseudomonas aeruginosa PAO1; experiment: ≥ marks a high value that may be exact or a test limit, other limits are often not marked, values filed in µg/mL are converted to µM
Attribute measured: MIC

Compound	Result
CC[C@H](C)[C@H](NC(=O)[C@H](CCC(=O)O)NC(=O)CNC(=O)[C@@H](NC(=O)[C@H](Cc1ccccc1)NC(=O)[C@H](C)NC(=O)[C@H](CCCCN)NC(=O)CNC(=O)[C@H](Cc1ccccc1)NC(=O)[C@H](CCCCN)NC(=O)[C@H](CCCCN)NC(=O)[C@H](C)N)C(C)C)C(=O)N[C@@H](CCSC)C(N)=O [AKKFGKAFVGEIM]	> 64 µM

Request: Hello, I am looking for reported MIC with Pseudomonas aeruginosa PAO1 for CC[C@H](C)[C@H](N)C(=O)N[C@@H](CCCCN)C(=O)N[C@@H](Cc1c[nH]c2ccccc12)C(=O)N[C@@H](CCCCN)C(=O)N[C@@H](CCCCN)C(=O)N[C@@H](CC(C)C)C(=O)N[C@@H](CC(C)C)C(=O)N[C@@H](CCCN=C(N)N)C(=O)N[C@@H](C)C(=O)N[C@@H](C)C(=O)N[C@@H](CCCCN)C(=O)N[C@@H](CCCN=C(N)N)C(=O)N[C@H](C(=O)N[C@@H](CC(C)C)C(N)=O)[C@@H](C)CC [IKWKKLLRAAKRIL] . Could you help?
Result: 6.25 µM

Request: Try this compound next: CC[C@H](C)[C@H](NC(=O)[C@@H](NC(=O)[C@H](CCCN=C(N)N)NC(=O)[C@@H]1CCCN1C(=O)[C@H](CCCCN)NC(=O)[C@H](CCCCN)NC(=O)[C@H](Cc1ccccc1)NC(=O)[C@H](Cc1ccccc1)NC(=O)[C@H](CCCCN)NC(=O)[C@H](CCCCN)NC(=O)[C@H](C)N)C(C)C)C(=O)NCC(=O)N[C@H](C(=O)N[C@@H](CO)C(=O)N[C@H](C(=O)N1CCC[C@H]1C(=O)N[C@@H](Cc1ccccc1)C(=O)O)[C@@H](C)CC)C(C)C [AKKFFKKPRVIGVSIPF]
Result: 6.62 µM

Request: Try this compound next: CC(C)C[C@H](NC(=O)[C@H](CC(C)C)NC(=O)[C@H](CCCCN)NC(=O)CNC(=O)[C@H](CC(C)C)NC(=O)[C@H](CC(C)C)NC(=O)[C@H](CO)NC(=O)[C@H](CC(C)C)NC(=O)[C@H](CO)NC(=O)[C@H](CC(C)C)NC(=O)[C@H](CC(C)C)NC(=O)CN)C(N)=O [GLLSLSLLGKLL]
Result: > 25 µM

Request: Try this compound next: CC[C@H](C)[C@H](NC(=O)[C@@H](NC(=O)[C@@H]1CCCN1C(=O)[C@H](CC(C)C)NC(=O)[C@@H](NC(=O)[C@@H](N)CO)[C@@H](C)CC)[C@@H](C)O)C(=O)N[C@H](C(=O)N[C@@H](CO)C(=O)N[C@@H](Cc1ccccc1)C(=O)N[C@@H](CC(C)C)C(=O)N[C@@H](CO)C(=O)N[C@@H](CCCCN)C(=O)N[C@H](C(=O)N[C@@H](Cc1ccccc1)C(N)=O)C(C)C)C(C)C [SILPTIVSFLSKVF]
Result: > 50 µM

Request: Try this compound next: CC(C)C[C@H](NC(=O)[C@H](C)NC(=O)[C@H](CCCN=C(N)N)NC(=O)[C@H](CCCN=C(N)N)NC(=O)[C@H](Cc1ccccc1)NC(=O)[C@H](C)NC(=O)[C@H](Cc1c[nH]c2ccccc12)NC(=O)CNC(=O)[C@H](CCCN=C(N)N)NC(=O)[C@@H](N)CCCN=C(N)N)C(=O)N[C@@H](C)C(=O)N[C@@H](Cc1ccc(O)cc1)C(=O)NCC(=O)N[C@@H](CCCN=C(N)N)C(=O)N[C@@H](CCCN=C(N)N)C(N)=O [RRGWAFRRALAYGRR]
Result: > 30 µM

Request: Try this compound next: CC(C)C[C@H](NC(=O)[C@H](C)NC(=O)[C@H](CCCCN)NC(=O)CNC(=O)[C@H](CC(C)C)NC(=O)[C@H](C)NC(=O)[C@H](CCCCN)NC(=O)[C@H](CC(C)C)NC(=O)[C@H](C)NC(=O)[C@H](CO)NC(=O)[C@H](CC(C)C)NC(=O)[C@H](C)NC(=O)CN)C(N)=O [GALSALKALGKAL]
Result: > 25 µM

Request: Try this compound next: CC[C@H](C)[C@H](NC(=O)[C@H](CCCCN)NC(=O)[C@H](CCCCN)NC(=O)[C@H](CC(C)C)NC(=O)CN)C(=O)N[C@H](C(=O)N[C@@H](CCCCN)C(=O)N[C@@H](CCCCN)C(=O)N[C@@H](CC(C)C)C(=O)N[C@@H](CC(C)C)C(N)=O)[C@@H](C)CC [GLKKIIKKLL]
Result: 13 µM

---

Recorded MIC by entry
system: Staphylococcus aureus ATCC 29213
Give just the numeric value; µM need not be written.

Compound	MIC, µM
CC[C@H](C)[C@H](NC(=O)[C@H](CCCN=C(N)N)NC(=O)[C@@H](N)CCCCN)C(=O)N[C@H](C(=O)N[C@@H](CCC(N)=O)C(=O)N[C@@H](CCCN=C(N)N)C(=O)N[C@@H](C)C(=O)N[C@@H](CCCCN)C(=O)N[C@@H](CC(=O)O)C(=O)N[C@@H](Cc1ccccc1)C(=O)N[C@@H](CC(C)C)C(=O)N[C@@H](CCCN=C(N)N)C(=O)O)C(C)C [KRIVQRAKDFLR]	40
CSCC[C@H](NC(=O)[C@@H](N)[C@@H](C)O)C(=O)N[C@@H](CO)C(=O)N[C@@H](CC(C)C)C(=O)N[C@@H](CCCN=C(N)N)C(=O)N[C@@H](Cc1ccccc1)C(=O)N[C@@H](Cc1c[nH]c2ccccc12)C(=O)N[C@@H](CCCN=C(N)N)C(=O)N[C@@H](Cc1c[nH]c2ccccc12)C(=O)N[C@@H](CCCCN)C(=O)N[C@H](C(=O)N[C@@H](CCCN=C(N)N)C(=O)O)C(C)C [TMSLRFWRWKVR]	76.8
CC(C)C[C@H](NC(=O)[C@@H](N)CCC(N)=O)C(=O)NCC(=O)N[C@@H](CCCCN)C(=O)N[C@@H](CCCCN)C(=O)N[C@@H](CCCCN)C(=O)N[C@@H](Cc1cnc[nH]1)C(=O)N[C@@H](CCCN=C(N)N)C(=O)N[C@@H](CCCN=C(N)N)C(=O)N[C@@H](CCCN=C(N)N)C(=O)N1CCC[C@H]1C(=O)N[C@@H](CO)C(=O)N[C@@H](CCCCN)C(=O)N[C@@H](CCCCN)C(=O)N[C@@H](CCCCN)C(=O)N[C@@H](CCCN=C(N)N)C(=O)N[C@@H](Cc1cnc[nH]1)C(=O)N[C@@H](Cc1c[nH]c2ccccc12)C(=O)O [QLGKKKHRRRPSKKKRHW]	128

Request: // MIC lookup, key: CC(C)C[C@H](NC(=O)[C@H](CCCN=C(N)N)NC(=O)[C@H](Cc1c[nH]c2ccccc12)NC(=O)[C@H](CCCN=C(N)N)NC(=O)[C@H](CC(C)C)NC(=O)[C@H](CCCN=C(N)N)NC(=O)[C@H](Cc1c[nH]c2ccccc12)NC(=O)[C@H](CCCN=C(N)N)NC(=O)[C@H](CC(C)C)NC(=O)[C@H](CCCN=C(N)N)NC(=O)[C@@H](N)Cc1c[nH]c2ccccc12)C(=O)N[C@@H](CCCN=C(N)N)C(N)=O [WRLRWRLRWRLR]
Result: 1

Request: Try this compound next: CC[C@H](C)[C@H](NC(=O)[C@H](C)NC(=O)[C@@H](N)CCCCN)C(=O)N[C@H](C(=O)N[C@@H](CCC(N)=O)C(=O)N[C@@H](CCCN=C(N)N)C(=O)N[C@H](C(=O)N[C@@H](CCCCN)C(=O)N[C@@H](CC(=O)O)C(=O)N[C@@H](Cc1ccccc1)C(=O)N[C@@H](CC(C)C)C(=O)N[C@@H](CCCN=C(N)N)C(=O)O)[C@@H](C)CC)C(C)C [KAIVQRIKDFLR]
Result: 40

Request: Try this compound next: CC[C@H](C)[C@H](N)C(=O)N[C@@H](CC(C)C)C(=O)NCC(=O)N[C@@H](CCCCN)C(=O)N[C@@H](CC(C)C)C(=O)N[C@@H](Cc1c[nH]c2ccccc12)C(=O)N[C@@H](CCC(=O)O)C(=O)NCC(=O)N[C@@H](CC(C)C)C(=O)N[C@@H](CCCCN)C(=O)N[C@@H](CO)C(=O)N[C@@H](CC(C)C)C(=O)N[C@@H](Cc1ccccc1)C(N)=O [ILGKLWEGLKSLF]
Result: 33.2

---

Read-out record for Acinetobacter baumannii: MIC
Give just the numeric value; µM need not be written.

Chemical string	MIC (µM)
CC[C@H](C)[C@@H]1NC(=O)CNC(=O)[C@H](CCCN=C(N)N)NC(=O)[C@H](Cc2ccc(O)cc2)NC(=O)[C@H](C)NC(=O)[C@H](C(C)C)NC(=O)[C@H](CCCN=C(N)N)NC(=O)[C@H](Cc2ccccc2)NC(=O)[C@@H](NC(=O)[C@H](Cc2c[nH]c3ccccc23)NC(=O)[C@@H](N)CCCCN)CSSC[C@@H](C(=O)N[C@@H](CCCN=C(N)N)C(=O)O)NC(=O)[C@H](CCCN=C(N)N)NC(=O)[C@H](CCCN=C(N)N)NC(=O)[C@H](Cc2ccc(O)cc2)NC(=O)[C@H](C)NC1=O	0.113

Here is the next item to consider.
Request: // MIC lookup, key: CC(C)C[C@H](NC(=O)[C@H](CCCN=C(N)N)NC(=O)[C@H](Cc1c[nH]c2ccccc12)NC(=O)[C@H](CCCN=C(N)N)NC(=O)[C@@H](NC(=O)[C@H](CCCCN)NC(=O)[C@H](Cc1c[nH]c2ccccc12)NC(=O)[C@H](CCCN=C(N)N)NC(=O)[C@H](CC(C)C)NC(=O)[C@H](CCCN=C(N)N)NC(=O)[C@@H](N)Cc1c[nH]c2ccccc12)[C@@H](C)O)C(=O)N[C@@H](CCCCN)C(N)=O
Result: 4
